biological target: IKKε (Homo sapiens, UniProt Q14164); construct: His-tag; made in house; host or cells: Sf9 insect cells; assay: In-vitro IKKε kinase assay ([γ33]ATP filter-plate); type: biochemical; settings: text bins; read-out: IC50 for inhibition of the kinase activity of IKKε
Sequence (Q14164 whole entry): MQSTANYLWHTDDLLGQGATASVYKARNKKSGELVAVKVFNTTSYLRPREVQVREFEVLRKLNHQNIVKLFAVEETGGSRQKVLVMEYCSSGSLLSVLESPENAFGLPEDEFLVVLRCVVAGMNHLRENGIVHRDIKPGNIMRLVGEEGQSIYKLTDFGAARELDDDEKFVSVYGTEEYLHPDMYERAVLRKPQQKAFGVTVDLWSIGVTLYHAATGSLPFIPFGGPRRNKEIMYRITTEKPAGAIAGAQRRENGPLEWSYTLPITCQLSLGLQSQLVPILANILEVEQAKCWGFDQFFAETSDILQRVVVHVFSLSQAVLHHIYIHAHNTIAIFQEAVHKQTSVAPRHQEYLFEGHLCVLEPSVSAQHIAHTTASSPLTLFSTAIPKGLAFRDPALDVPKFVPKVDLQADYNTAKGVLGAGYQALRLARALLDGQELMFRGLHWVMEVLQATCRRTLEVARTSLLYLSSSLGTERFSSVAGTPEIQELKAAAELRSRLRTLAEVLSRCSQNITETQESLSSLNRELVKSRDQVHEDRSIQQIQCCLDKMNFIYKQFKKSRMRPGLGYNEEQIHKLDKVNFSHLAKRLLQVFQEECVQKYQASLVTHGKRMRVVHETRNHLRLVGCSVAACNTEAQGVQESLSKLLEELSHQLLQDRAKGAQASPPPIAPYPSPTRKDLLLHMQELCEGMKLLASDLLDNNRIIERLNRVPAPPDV
readout-label: IC50

Completed entries (count: 6):
compound: CC1(C)CC1C(=O)Nc1ccc(-c2ccnc(Nc3ccc(N4CCOCC4)cc3)n2)cc1C#N (centres unmarked) [compound 554]
IC50: 5 to 50 nM

compound: N#Cc1cc(-c2ccnc(Nc3cccc(-c4ccncc4)c3)n2)ccc1OC1CCOCC1 [compound 573]
IC50: < 5 nM

compound: CC(C)N1CCN(C(=O)Cc2cccc(Nc3nccc(-c4ccc(OC5CCOCC5)c(C#N)c4)n3)c2)CC1 [compound 408]
IC50: 5 to 50 nM

compound: N#Cc1cc(-c2ccnc(Nc3ccc(N4CCOCC4)cc3)n2)ccc1SC1CCCCC1 [Example 137]
IC50: 50 to 500 nM

compound: N#Cc1cc(-c2ccnc(Nc3cccc(-c4nnn[nH]4)c3)n2)ccc1OC1CCOCC1 [compound 594]
IC50: < 5 nM

compound: COc1cc(Nc2nccc(-c3ccc(OC4CCN(C(C)=O)CC4)c(C#N)c3)n2)cc(OC)c1OC [Example 34]
IC50: < 5 nM

Value wanted: IC50 (IKKε (Homo sapiens, UniProt Q14164)) of entry N#Cc1cc(-c2ccnc(Nc3ccc(CN4CC(O)C4)cc3)n2)ccc1O[C@@H]1CCN(C(=O)CO)C1 [compound 615]
< 5 nM

Value wanted: IC50 (IKKε (Homo sapiens, UniProt Q14164)) of entry COc1cc(Nc2nccc(-c3ccc(OC4CCOCC4)c(C#N)c3)n2)ccc1OCCCN1CCN(C)CC1 [Example 256]
< 5 nM

====

Some molecules, each annotated with its measured IC50.
molecular target: IKKε (Homo sapiens, UniProt Q14164); construct: His-tag; made in house; host or cells: Sf9 insect cells; assay: In-vitro IKKε kinase assay ([γ33]ATP filter-plate); format: biochemical; details: text bins; read-out: IC50 for inhibition of the kinase activity of IKKε

molecule: N#Cc1cc(-c2ccnc(Nc3ccc(N4CCOCC4)cc3)n2)ccc1NC(=O)C1CCC1 [compound 416]
result: 5 to 50 nM

molecule: CC(C)C(=O)Nc1ccc(-c2ccnc(Nc3ccc(CC(=O)N4CCN(C(C)C)CC4)cc3)n2)cc1C#N [compound 418]
result: 5 to 50 nM

Quick check: IC50 of Cc1ccc(Nc2nccc(-c3ccc(OC4CCOCC4)c(C#N)c3)n2)cc1OCCN1CCN(C(C)C)CC1 [compound 597] ?
< 5 nM

Quick check: IC50 of COc1ccc(-c2ccnc(Nc3cc(CN4CCOCC4)c(OC)c(OC)c3)n2)cc1C#N [Example 226] ?
5 to 50 nM

====

molecular target: TBK1 (Homo sapiens); construct: His-tag; made in house; host or cells: Sf9 insect cells; experiment: In-vitro TBK1 kinase assay ([γ33]ATP filter-plate); type: biochemical; conditions: text bins; read-out: IC50 for inhibition of the kinase activity of TBK1
Sequence (Q9UHD2 whole entry): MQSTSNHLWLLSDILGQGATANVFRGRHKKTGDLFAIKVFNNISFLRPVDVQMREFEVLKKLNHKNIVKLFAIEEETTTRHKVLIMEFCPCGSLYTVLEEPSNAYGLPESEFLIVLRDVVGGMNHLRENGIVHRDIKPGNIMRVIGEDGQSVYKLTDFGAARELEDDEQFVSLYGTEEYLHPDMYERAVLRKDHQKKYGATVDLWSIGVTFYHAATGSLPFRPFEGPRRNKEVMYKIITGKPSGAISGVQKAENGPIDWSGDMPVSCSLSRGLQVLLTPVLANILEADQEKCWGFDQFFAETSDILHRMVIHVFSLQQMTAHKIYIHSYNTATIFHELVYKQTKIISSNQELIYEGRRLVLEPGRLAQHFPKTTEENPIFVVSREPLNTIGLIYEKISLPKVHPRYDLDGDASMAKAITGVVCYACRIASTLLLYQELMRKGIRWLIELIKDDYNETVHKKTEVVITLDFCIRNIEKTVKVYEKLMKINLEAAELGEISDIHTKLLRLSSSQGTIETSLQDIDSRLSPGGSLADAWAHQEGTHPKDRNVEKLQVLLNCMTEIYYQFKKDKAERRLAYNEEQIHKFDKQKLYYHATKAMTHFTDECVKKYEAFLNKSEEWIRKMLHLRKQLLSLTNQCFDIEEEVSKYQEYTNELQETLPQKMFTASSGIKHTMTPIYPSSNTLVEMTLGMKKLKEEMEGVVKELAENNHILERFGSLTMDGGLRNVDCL
pIC50: −log10 of the molar value.
Some molecules, each annotated with its measured pIC50.

Quick check: pIC50 of `COc1cc(Nc2nccc(-c3ccc(OC4CCOCC4)c(C#N)c3)n2)ccc1C(N)=O` ?
> 8.00

Quick check: pIC50 of `COC1CN(c2cc(Nc3nccc(-c4ccc(OC5CCOCC5)c(C#N)c4)n3)ccc2C)C1` ?
> 8.00

Quick check: pIC50 of `COc1cc(C#N)cc(-c2ccnc(Nc3cccc(NC(C)=O)c3)n2)c1` ?
7.00 to 8.00

Quick check: pIC50 of `N#Cc1cc(-c2ccnc(Nc3ccc(N4CCOCC4)cc3)n2)ccc1OCCCO` ?
> 8.00

Quick check: pIC50 of `COc1ccc(-c2ccnc(Nc3ccc(N4CCS(=O)(=O)CC4)cc3)n2)cc1C#N` ?
7.00 to 8.00

Quick check: pIC50 of `C[C@H](O)C(=O)N1CCC(COc2ccc(-c3ccnc(Nc4ccc(N5CCOCC5)cc4)n3)cc2C#N)CC1` ?
7.00 to 8.00

Quick check: pIC50 of `COc1cc(Nc2nccc(-c3ccc(OC4CCOCC4)c(C#N)c3)n2)ccc1OCCCN1CCN(C)CC1` ?
> 8.00

Quick check: pIC50 of `COc1ccc(-c2ccnc(Nc3ccc(N(C)CC(=O)N(C)C)c(OC)c3)n2)cc1C#N` ?
> 8.00

====

target: TBK1 (Homo sapiens); construct: His-tag; made in house; host or cells: Sf9 insect cells; test: In-vitro TBK1 kinase assay ([γ33]ATP filter-plate); type: biochemical; settings: text bins; read-out: IC50 for inhibition of the kinase activity of TBK1
readout-label: IC50

Completed entries (count: 10):
compound: CCN1CCN(c2ccc(-c3ccnc(Nc4ccc(N5CCOCC5)cc4)n3)cc2C#N)CC1
IC50: 0.01 to 0.1 µM
--
compound: CN(C)S(=O)(=O)Cc1ccc(Nc2nccc(-c3ccc(OC4CCOCC4)c(C#N)c3)n2)cc1
IC50: < 0.01 µM
--
compound: COc1cc(Nc2nccc(-c3ccc(OC4CCOCC4)c(C#N)c3)n2)ccc1C(=O)N1CC(CN(C)C)C1
IC50: < 0.01 µM
--
compound: COc1cc(Nc2nccc(-c3ccc(OC4CCOCC4)c(C#N)c3)n2)ccc1C(=O)NCc1cccnc1
IC50: < 0.01 µM
--
compound: N#Cc1cc(-c2ccnc(Nc3ccc(N4CCOCC4)cc3)n2)ccc1OC1CCN(C(=O)CO)CC1
IC50: < 0.01 µM
--
compound: N#Cc1cc(-c2ccnc(Nc3cccc(N4CCOCC4)c3)n2)ccc1OC1CCOCC1
IC50: < 0.01 µM
--
compound: N#Cc1cc(-c2ccnc(Nc3ccc(N4CCOCC4)cc3)n2)ccc1O[C@@H]1CCNC1
IC50: < 0.01 µM
--
compound: N#Cc1cc(-c2ccnc(Nc3cccc(NC(=O)N4CCC(O)C4)c3)n2)ccc1OC1CCOCC1 (stereo not shown)
IC50: < 0.01 µM
--
compound: COc1ccc(Nc2nccc(-c3ccc(OC4CCOCC4)c(C#N)c3)n2)cc1OCCOCCN
IC50: < 0.01 µM
--
compound: CN(C)CC(=O)Nc1ccc(Nc2nccc(-c3cccc(C#N)c3)n2)cc1
IC50: 0.01 to 0.1 µM

Quick check: IC50 of `COCCNCc1ccc(Nc2nccc(-c3ccc(OCC(C)C)c(C#N)c3)n2)cc1` ?
< 0.01 µM

====

target: IKKε (Homo sapiens); construct: His-tag; made in house; host or cells: Sf9 insect cells; experiment: In-vitro IKKε kinase assay ([γ33]ATP filter-plate); format: biochemical; conditions: text bins; read-out: IC50 for inhibition of the kinase activity of IKKε
readout-label: IC50

Completed entries (count: 7):
compound: CC(C)COc1ccc(-c2ccnc(Nc3ccc(CS(=O)(=O)NCCO)cc3)n2)cc1C#N [compound 645]
system-name: IKKε (Homo sapiens)
IC50: < 5 nM
--
compound: N#Cc1cc(-c2ccnc(Nc3ccc(S(=O)(=O)N4CCOCC4)cc3)n2)ccc1OC1CCOCC1 [compound 363]
system-name: IKKε (Homo sapiens)
IC50: 5 to 50 nM
--
compound: CN(C)Cc1cccc(Nc2nccc(-c3ccc(OC4CCOCC4)c(C#N)c3)n2)c1 [compound 548]
system-name: IKKε (Homo sapiens)
IC50: < 5 nM
--
compound: COc1cc(C#N)cc(-c2ccnc(Nc3ccc(N4CCOCC4)cc3)n2)c1 [Example 241]
system-name: IKKε (Homo sapiens)
IC50: 5 to 50 nM
--
compound: N#Cc1cccc(-c2ccnc(Nc3cccc(Cl)c3)n2)c1 [compound 338]
system-name: IKKε (Homo sapiens)
IC50: 50 to 500 nM
--
compound: COc1ccc(-c2ccnc(Nc3cc(CN(C)CC(=O)N(C)C)c(OC)c(OC)c3)n2)cc1C#N [Example 115]
system-name: IKKε (Homo sapiens)
IC50: < 5 nM
--
compound: N#Cc1cc(-c2ccnc(Nc3ccc(N4CCOCC4)cc3)n2)ccc1NC(=O)NC1CCOCC1 [Example 92]
system-name: IKKε (Homo sapiens)
IC50: 5 to 50 nM

Please look at the following compound next.
Quick check: IC50 of N#Cc1cc(-c2ccnc(Nc3ccc(-c4ccncc4)cc3)n2)ccc1OC1CCOCC1 [compound 610] ?
< 5 nM

====

biological target: IKKε (Homo sapiens, UniProt Q14164); construct: His-tag; made in house; host or cells: Sf9 insect cells; assay: In-vitro IKKε kinase assay ([γ33]ATP filter-plate); assay type: biochemical; conditions: text bins; read-out: IC50 for inhibition of the kinase activity of IKKε
pIC50: −log10 of the molar value.
Some molecules, each annotated with its measured pIC50.

molecule: COC(=O)c1ccc(Nc2nccc(-c3ccc(OC4CCOCC4)c(C#N)c3)n2)cc1OC
result: > 8.30

Quick check: pIC50 of `N#Cc1cccc(-c2nc(Nc3ccc(N4CCOCC4)cc3)nc3[nH]cnc23)c1` ?
6.30 to 7.30

Quick check: pIC50 of `COc1ccc(-c2ccnc(Nc3ccc(S(=O)(=O)NCCCN(C)C)c(OC)c3)n2)cc1C#N` ?
7.30 to 8.30

Quick check: pIC50 of `COc1cc(-c2ccnc(Nc3ccc(N4CCOCC4)cc3)n2)cc(C#N)c1OC1CCNCC1` ?
> 8.30

Quick check: pIC50 of `N#Cc1cc(-c2ccnc(Nc3ccc(N4CCOCC4)cc3)n2)ccc1OCCC1CCNCC1` ?
6.30 to 7.30

Quick check: pIC50 of `COc1ccc(-c2ccnc(Nc3cc(OC)c(OC)c(OC)c3)n2)cc1C#N` ?
> 8.30
